Data origin, for the record: PubChem BioAssay (NCI)

Entries annotated with measured TGI
- System: A498 renal
- ASSAY SUMMARY: NCI tumour cell line growth inhibition, 48 h
// note: answer is a bare numeric in µM

MOLECULE	NUMERIC RESULT
COc1ccc2c(c1)CC[C@@H]1[C@@H]2CC[C@]2(C)[C@@H](NC(=O)/C=C/c3ccc(O)c(O)c3)CC[C@@H]12	31.1
COC(=O)C1=C(OC(=O)/C=C/c2ccccc2)C(C(=O)OC)[C@@]2(O)[C@@H](C(=O)OC)[C@H](C)C[C@@H]1[C@@H]2C(=O)OC (stereo not given in full)	36.7

In: Which TGI is reported with A498 renal for this entry: `O=C(O)c1cn(C2CC2)c2cc(N3CCN(C(=O)Nc4nc(-c5ccccc5)cs4)CC3)c(F)cc2c1=O` ?
Out: 7.08

In: Any idea what TGI came out for `S=C(Nc1ccc(N=Nc2ccccc2)cc1)SCc1ccccc1` on A498 renal?
Out: 43.7
